# system: HLA-A*02:19
# method-notes: IEDB peptide-MHC binding, purified MHC/direct/fluorescence; filed as Kd, often an IC50 or EC50 that approximates it; bounds were set here for any values at or beyond the usual limits of such assays
# assay-setup: source organism: Ravn virus - Ravn, Kenya, 1987
value-kind: Kd

> print(dat)
   primary.sequence  experimental.result
1         DLEKYNLAF              ≥ 20 µM

====

# system: HLA-B*40:01
# method-notes: IEDB peptide-MHC binding, purified MHC/competitive/radioactivity; filed as Kd, often an IC50 or EC50 that approximates it; bounds were set here for any values at or beyond the usual limits of such assays
# assay-setup: source organism: Mammarenavirus guanaritoense
pKd: −log10 of the molar value.
value-kind: pKd

> print(dat)
   primary.sequence  value.kind  experimental.result
1        SEDGLDGFDW         pKd                 4.84
